Would you mind telling me the reported cell viability of each entry?
tested on: HepG2; experiment: cell viability relative to DMSO; higher = less toxic; details: 72 h; 10 nM
Give bare numbers, in %.

Molecule	Unit Abbrev	cell viability
O=C(O)CCCC[C@@H]1SC[C@@H]2NC(=O)N[C@@H]21 [biotin]	%	101
COc1cccc(CN(C(=O)CC(C)(C)C)[C@H]2C[C@@H](C(=O)N3CCNCC3)N(Cc3ccc4c(c3)OCO4)C2)c1	%	96.2
CCCCCCCCCCCCCC[C@@H](O)[C@@H](O)[C@@H](N)CO [phytosphingosine]	%	92.7

Give measured cell viability for every item shown.
1. CCC(O)(CC(N)=O)c1ccccc1 (configuration not stated) [3-hydroxy-3-phenylpentanamide]
2. COc1cc(C(=O)NC2CCCNC2)cc(OC)c1OC (configuration not stated) [troxipide]
3. N=C(N)Nc1ccc(C(=O)Oc2ccc3cc(C(=N)N)ccc3c2)cc1 [nafamostat]
4. Clc1ccc(Nc2nnc(Cc3ccncc3)c3ccccc23)cc1 [vatalanib]
5. COC(c1ccccc1)(c1ccccc1)[C@H](Oc1nc(C)cc(C)n1)C(=O)O [ambrisentan]
6. CCCCCCCCCCCCOS(=O)(=O)O [dodecyl-sulfate]
7. Cc1cc(O)cc2c1O[C@](C)(CCC[C@H](C)CCC[C@H](C)CCCC(C)C)CC2 [D-delta-tocopherol]
8. COC(=O)c1cc2c(C(F)(F)F)cc(-c3ccccc3)cc2n1O [NHI-2]

## Output
93
109
108
92.4
98.4
106
110
103

Record cell viability per entry; entries follow.
1. CCCCCCCCCCCCCCSCC(=O)O [tetradecylthioacetic-acid]
2. C#CCN1C(C)=C(C(=O)OC)C(c2cccc([N+](=O)[O-])c2)C(C(=O)OCC)=C1C (configuration not stated) [MRS-1845]
3. Cn1cc(-c2cnn3c(N)c(Br)c([C@@H]4CCCNC4)nc23)cn1
4. O=C(N[C@H]1CN2CCC1CC2)c1ccc2c(c1)OCCO2

## Output
[102, 105, 101, 93]

List reported cell viability for each of these molecules:
1. CC(C)NC[C@@H](C(=O)N1CCN(c2ncnc3c2[C@H](C)C[C@H]3O)CC1)c1ccc(Cl)cc1 [GDC-0068]
2. COc1ncc(-c2ccc3nccc(-c4ccnnc4)c3c2)cc1NS(=O)(=O)c1ccc(F)cc1F
3. Cc1ccc(NC(=O)c2cccc(C(C)(C)C#N)c2)cc1Nc1ccc2ncn(C)c(=O)c2c1 [AZ-628]
4. CCNCC(O)c1cccc(O)c1 (configuration not stated) [etilefrine]

## Output
1. 115
2. 77.2
3. 102
4. 87.3

Each of the following entries comes with a recorded value; kindly state cell viability for each.
1. CC(=O)c1ccc2c(c1)[C@@H]1C=CC[C@@H]1[C@H](c1cc3c(cc1Br)OCO3)N2 [G-1]
2. Cc1cnc(C(=O)O)c[n+]1[O-] [acipimox]
3. NC(=O)CN1C=CCC(C(N)=O)=C1 [caricotamide]

## Output
[88.4, 101, 103]

====

What drug sensitivity score was measured for each of the following?
test system: HepG2; assay: drug sensitivity score (DSS) for viability; higher = more toxic; extreme values may be limits of the assay; settings: 72 h
Answers are plain numbers.

List reported drug sensitivity score for each of these compounds:
1. CCCC(=O)C1CCN(c2ncnc3c2CN(C(=O)c2ccc(-c4ccccc4)cc2)CC3)CC1
2. CN(C)CCCn1cc(C2=C(c3c[nH]c4ccccc34)C(=O)NC2=O)c2ccccc21
3. O=C(O)CCCC[C@@H]1SC[C@@H]2NC(=O)N[C@@H]21
4. O=C(O)CNC(=O)C(CS)Cc1ccccc1 (stereo not drawn)
5. CN1c2cc3c(cc2N=C(c2ccc(C(=O)O)cc2)c2ccccc21)C(C)(C)CCC3(C)C

## Output
1. 0
2. 4.5
3. 0
4. 0
5. 2.4

# batch: return drug sensitivity score for each of the 7 compounds below
1. CC1COc2c(N3CCN(C)CC3)c(F)cc3c(=O)c(C(=O)O)cn1c23 (stereo not drawn)
2. C/C=C(/C)C(=O)O[C@H]1C(C)=C[C@]23C(=O)[C@@H](C=C(CO)[C@@H](O)[C@]12O)[C@H]1[C@@H](C[C@H]3C)C1(C)C [ingenol-mebutate]
3. CC(=O)N[C@H](Cc1ccc2ccccc2c1)C(=O)N[C@H](Cc1ccc(Cl)cc1)C(=O)N[C@H](Cc1cccnc1)C(=O)N[C@@H](CO)C(=O)N[C@@H](Cc1ccc(NC(=O)[C@@H]2CC(=O)NC(=O)N2)cc1)C(=O)N[C@H](Cc1ccc(NC(N)=O)cc1)C(=O)N[C@@H](CC(C)C)C(=O)N[C@@H](CCCCNC(C)C)C(=O)N1CCC[C@H]1C(=O)N[C@H](C)C(N)=O
4. Cc1nnc(C(=O)NC(C)(C)c2nc(C(=O)NCc3ccc(F)cc3)c(O)c(=O)n2C)o1
5. COc1cc(N2CCC(N3CCN(C)CC3)CC2)ccc1Nc1ncc(Cl)c(Nc2ccccc2S(=O)(=O)C(C)C)n1
6. C=C1CC[C@H](O)C/C1=C/C=C1\CCC[C@]2(C)[C@@H]([C@H](C)/C=C/[C@H](C)C(C)C)CC[C@@H]12
7. O=C(O)c1cccnc1

## Output
[0.85, 12, 0, 0, 8.1, 0, 0]
